Study Target: human mGluR4 (Homo sapiens, UniProt Q14833)
Sequence (Q14833 33-912): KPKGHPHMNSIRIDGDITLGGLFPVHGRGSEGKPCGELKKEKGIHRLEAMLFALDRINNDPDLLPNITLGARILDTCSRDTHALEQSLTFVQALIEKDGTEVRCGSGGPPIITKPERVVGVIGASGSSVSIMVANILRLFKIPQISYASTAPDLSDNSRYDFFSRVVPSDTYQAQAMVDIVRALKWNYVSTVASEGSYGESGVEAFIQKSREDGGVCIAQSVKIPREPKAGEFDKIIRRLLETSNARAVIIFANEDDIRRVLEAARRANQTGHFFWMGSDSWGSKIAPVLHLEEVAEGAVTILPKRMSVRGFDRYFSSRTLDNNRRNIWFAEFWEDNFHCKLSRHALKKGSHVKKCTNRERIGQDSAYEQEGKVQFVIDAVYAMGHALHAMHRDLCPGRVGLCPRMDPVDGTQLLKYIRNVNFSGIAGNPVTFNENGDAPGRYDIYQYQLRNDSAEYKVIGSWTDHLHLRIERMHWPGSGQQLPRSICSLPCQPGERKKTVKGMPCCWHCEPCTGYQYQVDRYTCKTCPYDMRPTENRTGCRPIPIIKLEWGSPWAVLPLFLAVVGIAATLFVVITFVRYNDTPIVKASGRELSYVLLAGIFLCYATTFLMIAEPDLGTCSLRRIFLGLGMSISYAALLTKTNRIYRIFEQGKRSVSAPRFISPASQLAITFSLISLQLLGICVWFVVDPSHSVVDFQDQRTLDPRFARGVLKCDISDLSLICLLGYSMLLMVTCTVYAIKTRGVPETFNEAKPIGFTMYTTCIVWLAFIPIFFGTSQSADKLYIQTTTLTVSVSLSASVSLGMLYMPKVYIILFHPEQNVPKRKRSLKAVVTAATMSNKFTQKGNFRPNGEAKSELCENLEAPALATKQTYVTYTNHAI
Assay type: cell-based
Settings: human mGluR4
Property: mGluR4 PAM activity (in words)

Example results:
Q: I have this molecule here, O=C(Nc1ccc(Cl)c(Cl)c1)c1ccccc1 [Compound 8i] , and I need its recorded mGluR4 PAM activity (in words).
Ans: inactive

Q: If you can, please state the reported mGluR4 PAM activity (in words) value of COc1cc(NC(=O)c2ccccn2)ccc1Cl [Compound 9b] .
Ans: submicromolar potency

Q: Returns the measured mGluR4 PAM activity (in words) for the input molecule. Input: O=C(Nc1ccc(Cl)c(Cl)c1)C1CCCCC1 [Compound 8h]
Ans: inactive

Q: # input molecule: COc1cc(NC(=O)c2ccccn2)ncn1 [Compound 9p] ; wanted: its mGluR4 PAM activity (in words)
Ans: inactive

Q: Can you look up the measured mGluR4 PAM activity (in words) of O=C(Nc1cccc(OC(F)F)c1)c1ccccn1 [Compound 9c] for me?
Ans: submicromolar potency

Now look at this entry.
Q: Can you look up the measured mGluR4 PAM activity (in words) of O=C(Nc1cccc(C(F)(F)F)n1)c1ccccn1 [Compound 9o] for me?
Ans: inactive

* * *

Examples of compounds with documented HLM (% remaining) follow.
Assay Overview: Metabolic stability in human liver microsomes
Settings: parent remaining after the incubation period
Value expressed in % remaining; do not type the unit.

Q: Fill in: HLM (% remaining) of O=C(Nc1cccc(OC(F)F)c1)c1ccccn1 is ___
Ans: 2.4

Q: State the recorded HLM (% remaining) for this entry: COc1cc(NC(=O)c2ccccn2)ccc1F
Ans: 3.0

Q: Please look up its HLM (% remaining): COc1cc(NC(=O)c2ccccn2)ccc1Cl
Ans: 5.3

# next compound below
Q: # input compound: O=C(Nc1cccc(OC(F)(F)F)c1)c1ccccn1 ; wanted: its HLM (% remaining)
Ans: 22

* * *

Assay Overview: Metabolic stability in rat liver microsomes
Settings: parent remaining after the incubation period
Entries whose RLM (% remaining) is below 6 % remaining take condition met; entries at or above 6 % remaining take condition not met.

Worked examples, 4 molecules total:
Q: Is RLM (% remaining) of COc1cc(NC(=O)c2ccccn2)ccc1F strictly below 6 % remaining?
Ans: condition not met

Q: Please determine if O=C(Nc1cccc(C(F)(F)F)c1)c1ccccn1 is below 6 % remaining in terms of RLM (% remaining).
Ans: condition not met

Q: # check: RLM (% remaining) < 6 % remaining for O=C(Nc1cccc(OC(F)(F)F)c1)c1ccccn1
Ans: condition not met

Q: Confirm or reject: RLM (% remaining) of COc1cc(NC(=O)c2ccccn2)ccc1Cl lies strictly below 6 % remaining
Ans: condition met

Continuing:
Q: Bench note: check whether O=C(Nc1cccc(OC(F)F)c1)c1ccccn1 shows RLM (% remaining) below 6 % remaining
Ans: condition met
